Reported Kd values are given for each entry in this list.
- TARGET_DESC: T1, ANTIBODY EXPRESSION CONTROL
- T1 construct: also called mouse anti-canine antibody (capture reagent of the expression control ELISA)
- ASSAY: SPR Biacore, expression control
- Description: The affinity with which candidate mAbs bind canine, feline, and human (SEQ ID NO: 122; Human_OSMR) (R&D Systems, Minneapolis, Minn.) OSMR was determined using surface plasmon resonance (SPR) on a Biacore system (Biacore Life Sciences (GE Healthcare), Uppsala, Sweden). […] Chips were quenched with ethanolamine and the affinity with which all candidate mAbs bound to the immobilized OSMR was evaluated. […]
# unit: nM | format: bare number

The following binders have reported results that may help.
{"BINDER": "Mu_19F07_VL (SEQ ID NO: 49)_Q89A (antibody, V domains shown) VH: EVKLVESEGGLVQPGSSMKLSCTASGFTFSDYYMAWVRQVPEKGLEWVANINYDGSSTYYLDSLKSRFIISRDNAKNILYLQMSSLKSEDTATYYCARGLTWDFDVWGTGTTVTVSS VL: DIVMTQSHKFMSPSVGDRVSITCKASQDVDTAVAWYQQKPGQSPKLLIYLASTRHTGVPDRFTGSGSGTDFTLTISNVQSEDLADYFCAQYSRFPLTFGAGTKLELKR", "UNIT_LABEL": "nM", "REPORTED_VALUE": 0.135}
{"BINDER": "Mu_19F07_VH (SEQ ID NO: 47)_Y59A (antibody, V domains shown) VH: EVKLVESEGGLVQPGSSMKLSCTASGFTFSDYYMAWVRQVPEKGLEWVANINYDGSSTAYLDSLKSRFIISRDNAKNILYLQMSSLKSEDTATYYCARGLTWDFDVWGTGTTVTVSS VL: DIVMTQSHKFMSPSVGDRVSITCKASQDVDTAVAWYQQKPGQSPKLLIYLASTRHTGVPDRFTGSGSGTDFTLTISNVQSEDLADYFCQQYSRFPLTFGAGTKLELKR", "UNIT_LABEL": "nM", "REPORTED_VALUE": 0.359}
{"BINDER": "Mu_09E09_VH (SEQ ID NO: 35)_I101A (antibody, V domains shown) VH: DVKLVESGEGLVKPGGSLKLSCAASGFTFSSYAMSWVRQTPEKRLEWVAYISSGGDYIYYADTVKGRFTISRDNARNTLYLQMSSLKSEDTAMYYCTRDPATGTFAYWGQGTLVTVSA VL: DLQMTQTTSSLSASLGDRVTISCRASQDINNYLNWYQQKPDGTVKLLIYYTSTLHSGVPSRFSGSGSGTDYSLTISNLEQEDIATYFCQQGNTLPWTFGGGTKLEIKR", "UNIT_LABEL": "nM", "REPORTED_VALUE": 0.172}
{"BINDER": "Mu_02D09_VH (SEQ ID NO: 31)_Y50A (antibody, V domains shown) VH: EVQLVESGGGLVKPGGSLTLSCAASGFTFSDYGMHWLRQAPEKGLEWVAAISSGSRAVFFADTVKGRFTISRDNAKNTLFLQMTSLRSDDTAMYYCARDRYDGRGFAYWGQGTLVTVSA VL: DIVLTQSPATLSVTPGDSVSLSCRASQSISNNLHWYQQTSHESPRLLITYASQSISGIPSRFSGSGSGTDFTLSINSVETEDFGMYFCQQSNSWPLTFGAGTKLELKR", "UNIT_LABEL": "nM", "REPORTED_VALUE": 0.00259}
{"BINDER": "Mu_02D09_VL (SEQ ID NO: 33)_L96A (antibody, V domains shown) VH: EVQLVESGGGLVKPGGSLTLSCAASGFTFSDYGMHWLRQAPEKGLEWVAYISSGSRAVFFADTVKGRFTISRDNAKNTLFLQMTSLRSDDTAMYYCARDRYDGRGFAYWGQGTLVTVSA VL: DIVLTQSPATLSVTPGDSVSLSCRASQSISNNLHWYQQTSHESPRLLITYASQSISGIPSRFSGSGSGTDFTLSINSVETEDFGMYFCQQSNSWPATFGAGTKLELKR", "UNIT_LABEL": "nM", "REPORTED_VALUE": 0.0659}
{"BINDER": "Mu_10F07_VL (SEQ ID NO: 41)_Y50A (antibody, V domains shown) VH: DVKLVESGEGLVKPGGSLKLSCAASGFTFSSYAMSWVRQTPEKRLEWVTYISSGGDYFYYADTVKGRFTISRDNARNTLYLQMSSLKSEDTAMYYCTRDPITGTFAYWGQGTLVTVSA VL: DIQMTQTTSSLSASLGDRVTISCRASQDITNYLNWYQQKPDGTVKLLIYATSTLHSGVPSRFSGSGSGTDFSLTISNLEQEDIATYFCQQGHMLPWTFGGGTKLEIKR", "UNIT_LABEL": "nM", "REPORTED_VALUE": 0.6}
{"BINDER": "Mu_09E09_VL (SEQ ID NO: 37)_Y32A (antibody, V domains shown) VH: DVKLVESGEGLVKPGGSLKLSCAASGFTFSSYAMSWVRQTPEKRLEWVAYISSGGDYIYYADTVKGRFTISRDNARNTLYLQMSSLKSEDTAMYYCTRDPITGTFAYWGQGTLVTVSA VL: DLQMTQTTSSLSASLGDRVTISCRASQDINNALNWYQQKPDGTVKLLIYYTSTLHSGVPSRFSGSGSGTDYSLTISNLEQEDIATYFCQQGNTLPWTFGGGTKLEIKR", "UNIT_LABEL": "nM", "REPORTED_VALUE": 0.294}
{"BINDER": "Mu_09E09_VL (SEQ ID NO: 37)_W96A (antibody, V domains shown) VH: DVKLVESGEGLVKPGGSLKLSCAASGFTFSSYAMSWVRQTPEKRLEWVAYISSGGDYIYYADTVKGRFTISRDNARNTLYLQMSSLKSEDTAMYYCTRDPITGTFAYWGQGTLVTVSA VL: DLQMTQTTSSLSASLGDRVTISCRASQDINNYLNWYQQKPDGTVKLLIYYTSTLHSGVPSRFSGSGSGTDYSLTISNLEQEDIATYFCQQGNTLPATFGGGTKLEIKR", "UNIT_LABEL": "nM", "REPORTED_VALUE": 0.345}
{"BINDER": "Mu_19F07_VL (SEQ ID NO: 49)_T53A (antibody, V domains shown) VH: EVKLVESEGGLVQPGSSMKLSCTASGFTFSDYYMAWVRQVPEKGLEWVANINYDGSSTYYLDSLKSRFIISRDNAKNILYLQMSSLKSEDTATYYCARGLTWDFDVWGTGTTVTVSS VL: DIVMTQSHKFMSPSVGDRVSITCKASQDVDTAVAWYQQKPGQSPKLLIYLASARHTGVPDRFTGSGSGTDFTLTISNVQSEDLADYFCQQYSRFPLTFGAGTKLELKR", "UNIT_LABEL": "nM", "REPORTED_VALUE": 0.123}

// below: Kd requested for another binder
## Input Need Kd of Mu_19F07_VH (SEQ ID NO: 47)_S56A (antibody, V domains shown) VH: EVKLVESEGGLVQPGSSMKLSCTASGFTFSDYYMAWVRQVPEKGLEWVANINYDGASTYYLDSLKSRFIISRDNAKNILYLQMSSLKSEDTATYYCARGLTWDFDVWGTGTTVTVSS VL: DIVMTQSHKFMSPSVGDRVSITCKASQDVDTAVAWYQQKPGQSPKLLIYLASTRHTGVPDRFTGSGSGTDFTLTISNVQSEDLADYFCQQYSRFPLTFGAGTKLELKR , thanks.
## Output 4.08
